Attribution: paper PMC12040169

Assay: in vitro
Details: human, hela cells, % viability
endpoint.label: viability at 28.5 h, 10 µM (%)
Respond numerically; units are % and should not be typed.

sample_smiles=O=C(Cn1nnc2ccccc2c1=O)NCC(F)(F)F endpoint_label="viability at 28.5 h, 10 µM" unit_string=% observed_measurement=94.1
sample_smiles=Cc1ccc(S(=O)(=O)Nc2ccccc2-c2nc3ccccc3c(=O)o2)cc1 endpoint_label="viability at 28.5 h, 10 µM" unit_string=% observed_measurement=94.5
sample_smiles=COc1cccc2ncn(CCc3csc(N)n3)c(=O)c12 endpoint_label="viability at 28.5 h, 10 µM" unit_string=% observed_measurement=81.9

Which viability at 28.5 h, 10 µM is reported for this molecule? `COc1ccc2[nH]cc(CC(=O)Nc3cc(C)nc4ccccc34)c2c1` 88.8

Similarly, `COc1ccc(-c2csc(NS(=O)(=O)c3c(C)cc(Cl)cc3Cl)n2)cc1` ? 104

----------
Overview of recorded activity at 10 µM for various compounds
System: C. trachomatis L2/434/Bu expressing GFP (CTL2-GFP)
Construct: L2/434/Bu GFP intracellular growth in HeLa cells
Experiment: microbe, parasite or virus in culture
Design: C. trachomatis total inclusion area by high-content imaging, normalised to DMSO
Settings: Chlamydia trachomatis, HeLa, 28.5 h; total inclusion area; read-out: % of control remaining
Respond numerically; units are % and should not be typed.

Observe how each entry below is paired with its result.
compound=Cc1cc(OCC(=O)Nc2ccc(S(=O)(=O)Nc3onc(C)c3C)cc2)cc(C)c1Cl endpoint_label="activity at 10 µM" unit_string=% observed_measurement=11.8
compound=Cc1cccc(-c2ccc(CC3(C(N)=O)CCN(C(=O)CCc4ccccc4)CC3)cc2)c1 endpoint_label="activity at 10 µM" unit_string=% observed_measurement=1.3
compound=Nc1nc(F)nc2c1ncn2[C@H]1C[C@@H](O)[C@@H](CO)O1 endpoint_label="activity at 10 µM" unit_string=% observed_measurement=1.29
compound="Cc1ccc(NC(=O)N(Cc2ccc(-c3ccccc3)cc2)CC(C)(C)CN)c(C)c1 [CBK002428C]" endpoint_label="activity at 10 µM" unit_string=% observed_measurement=10.7
compound="CC(NC(C)(C)C)C(O)COc1ccc(Cl)c2c1C1CCC2CC1 (centres unmarked) [CBK017752C]" endpoint_label="activity at 10 µM" unit_string=% observed_measurement=17.5

GET /values?readout=activity at 10 µM&system=C. trachomatis L2/434/Bu expressing GFP (CTL2-GFP)&item= `CCNC(=O)N1CC2(CCN(Cc3nc4ccccc4[nH]3)CC2)c2ccccc21` 65

Similarly, `Oc1c(CN2CCN(c3ccc(F)cc3)CC2)cc(Br)c2cccnc12` ? 37.5

Similarly, c1c(C2CC2)[nH]c2nc(N3CCCC3)nc(N3CCCC3)c12 [CBK016707G] ? 3.52

Similarly, `O=C(O)c1cn(C2CC2)c2cc(N3CCNCC3)c(F)cc2c1=O` ? 0.167

Similarly, N#CCCCN1CCC(Oc2cncc(OCc3ccc(Cl)c(Cl)c3)n2)C1 (centres unmarked) ? 32.6

Similarly, CC1CC(C)CN(Cc2csc(NC(=O)Cc3ccc(Cl)cc3)n2)C1 (centres unmarked) ? 46.1

Similarly, NC(=O)c1[nH]nc(C2OC(CO)C(O)C2O)c1O (centres unmarked) ? 13.6

----------
Assay: in vitro
Details: human, hela cells, % viability
endpoint.label: viability at 28.5 h, 10 µM

Observe how each entry below is paired with its result.
sample_smiles=COc1cc(C=C2SC(=S)N(CCCCCC(=O)O)C2=O)cc(OC)c1 observed_measurement=98.1%
sample_smiles=Cc1cccnc1NC(=S)NCc1ccco1 observed_measurement=103%
sample_smiles=O=C(NC(=S)Nc1ccc(-c2ccc(CO)o2)cc1)c1ccc2c(c1)OCCO2 observed_measurement=82.9%
sample_smiles=CC(C)(CO)CNc1cncc(-c2cccnc2)n1 observed_measurement=89.8%

Which viability at 28.5 h, 10 µM is reported for this molecule? `O=S(=O)(Nc1nnn[nH]1)c1ccc(F)cc1` 104%

----------
Test: in vitro
Settings: human, hela cells, % viability
endpoint.label: viability at 28.5 h, 10 µM (%)
Respond numerically; units are % and should not be typed.

Observe how each entry below is paired with its result.
compound=CCc1nn(CC(=O)N(C)C)c(=O)c2cc3oc(C)cc3n12 endpoint_label="viability at 28.5 h, 10 µM" observed_measurement=114
compound="COC1CCCC(C(=O)NC(Cc2ccsc2)c2cccnc2)C1 (stereo not drawn)" endpoint_label="viability at 28.5 h, 10 µM" observed_measurement=84.4
compound=Cc1ccc(NC(=O)c2cnc3ccccc3n2)c(C)n1 endpoint_label="viability at 28.5 h, 10 µM" observed_measurement=97.7
compound="CCOc1ccccc1NC(=O)NC1CC2CCC(C1)N2Cc1ccccc1 (stereo not drawn)" endpoint_label="viability at 28.5 h, 10 µM" observed_measurement=86.2
compound=COc1ccc(-n2c(=O)[nH]c3ncc(-c4ccco4)nc32)c(C)c1 endpoint_label="viability at 28.5 h, 10 µM" observed_measurement=101

Which viability at 28.5 h, 10 µM is reported for this compound? Cc1c(Br)c([N+](=O)[O-])nn1C(C)C(=O)Nc1sc2c(c1C(N)=O)CCCC2 (stereo not drawn) 88.1

Similarly, CN(Cc1nc(-c2ccccc2)no1)C(=O)COCC1CCCCO1 (stereo not drawn) ? 106

Similarly, `CN1CCN(CCC(=O)Nc2ccc3c(c2)CCC3)CC1` ? 95.3

Similarly, Cc1ccc(Cl)c(OC(C)C(=O)N2CCC(CC(N)=O)CC2)c1 (stereo not drawn) ? 93

----------
Experiment: in vitro
Details: human, hela cells, % viability
Overview of recorded viability at 28.5 h, 10 µM for various molecules
Respond numerically; units are % and should not be typed.

Observe how each entry below is paired with its result.
molecule="CCCN1CCC(=NNC(=O)c2c[nH]c3ccccc23)CC1 [CBK262597]" unit_string=% observed_measurement=95.3
molecule="O=C(C1CC1)N1C[C@@H](c2ccsc2)[C@@H]2CN(C3CCCC3)CC[C@@H]21 [CBK283382]" unit_string=% observed_measurement=107

Which viability at 28.5 h, 10 µM is reported for this molecule? O=C(NCCc1nc2ccccc2[nH]1)Nc1ccccc1 [CBK261803] 103

Similarly, CCOc1ccc(NC(=O)CCc2ncc(C(C)(C)C)o2)c(C)c1 [CBK306021] ? 104

Similarly, O=C(c1c[nH]c(=O)c(Cl)c1)N1CCCCC1CN1CCOCC1 (centres unmarked) [CBK304416] ? 119

Similarly, FC(F)(F)Oc1ccc(CNc2nccnc2-c2cccs2)cc1 [CBK036806] ? 100

Similarly, COc1cc(/C=N/NC(=O)c2cccnc2)cc([N+](=O)[O-])c1O [CBK262233] ? 86.4

Similarly, CN(C(=O)CCn1c(=O)oc2cc(Cl)ccc21)C1(C(N)=O)CCCC1 [CBK305493] ? 89.1

Similarly, CC(=O)Nc1cccc(C(=O)OCC(=O)c2cccs2)c1 [CBK306040] ? 105

Similarly, COc1ccc2cc3c(nc2c1)Sc1nncn1N=C3 [CBK021248] ? 100

Similarly, O=C(CN(c1ccc(Cl)cc1)S(=O)(=O)c1ccccc1)Nc1ccc2ccccc2c1 [CBK263776] ? 112

Similarly, C[C@@H](Cn1nnc2ccccc21)NC(=O)Cc1ccccc1F [CBK282305] ? 86.1

Similarly, CN(Cc1ccccc1)CC(O)c1ccc2c(c1)CCCN2C(=O)c1ccccc1F (centres unmarked) [CBK286278] ? 88.2

Similarly, Cc1cc(C(=O)N2C[C@H]3CC[C@](O)(c4ccc(F)cc4)[C@H]3C2)on1 [CBK284354] ? 92.4

Similarly, Cc1nonc1CN(C)C(=O)C1CC2C=CC1C21CC1 (centres unmarked) [CBK282076] ? 97.2

----------
Experiment: in vitro
Settings: human, hela cells, % viability
Overview of recorded viability at 28.5 h, 10 µM for various compounds
Respond numerically; units are % and should not be typed.

sample_smiles=Cc1ccc(C(=O)Nc2cccc(-c3ccc4nnc(C)n4n3)c2)cc1 unit_string=% observed_measurement=82.8

Which viability at 28.5 h, 10 µM is reported for this compound? `Cc1ncsc1CCOC(=O)N1C[C@@H](C)O[C@@H](C)C1` 96.3

----------
Assay: in vitro
Conditions: human, hela cells, % viability
endpoint.label: viability at 28.5 h, 10 µM (%)
Respond numerically; units are % and should not be typed.

Observe how each entry below is paired with its result.
molecule="O=C(Cn1cnc2ccc(F)cc2c1=O)N1CCOC2CCCCC21 (stereo not drawn) [CBK253316]" unit_string=% observed_measurement=80.5
molecule="O=C(/C=C/c1ccccc1)N/C(=C/c1ccccc1)C(=O)Nc1ccc2ccccc2c1 [CBK265023]" unit_string=% observed_measurement=89.6

Which viability at 28.5 h, 10 µM is reported for this molecule? Cc1cccc(/N=C2\NC(=O)C(Cc3ccc(C)c(Cl)c3)S2)n1 (stereo not drawn) [CBK265597] 106

Similarly, C/C(=N/NC(=O)CSc1nc2ccccc2n1C)c1cccc([N+](=O)[O-])c1 [CBK263179] ? 99.3

Similarly, O=C(NCc1ccc2c(c1)OCO2)c1cncc(-c2ccc(C(=O)N3CCOCC3)cc2)c1 [CBK158614] ? 108

Similarly, CN(C(=O)CCn1c(=O)oc2cc(Cl)ccc21)C1CCNC1 (stereo not drawn) [CBK304310C] ? 101

Similarly, COc1ccc(Cl)cc1NC(=O)COc1cccc2ccccc12 [CBK262995] ? 94.9

Similarly, Fc1cc2c3c(c1)c1c(n3CCC2)CCNCC1 [CBK018406C] ? 105

Similarly, C(=N\n1cnnc1)/c1ccccc1OCc1cccc2ccccc12 [CBK263864] ? 94.6
